# Test Method Notes: NCI Yeast Anticancer Drug Screen. Data for the bub3 strain (AID 167)
# Test Conditions: S. cerevisiae bub3 mutant strain, at 5.0 µM (retest, dose inferred, filed as 0.5)
About 79,000 compounds went through this panel and 15% of them were active in at least one assay; those are over-represented in the sample as a whole. The source made the active and inactive calls. Rule as the data show it: active = growth inhibition above about 70%; inactive = the rest.
Classes used: class 1 (active), class 0 (inactive)

CC(O)C(=O)NCCc1ccccc1 (stereo not drawn)	class 0
O=C1C=CC(=O)N1c1cccc2c1CCCC2	class 1
COc1ccc(C(Cn2ccnc2)Sc2ccc(Cl)c(Cl)c2)cc1 (stereo not drawn)	class 1
CCCCCC/C=C1\CCC(CN2CCCC2)C1=O (stereo not drawn)	class 0
COc1ccc2c(c1)C(OC)C1c3c(cc4c(c3-2)OCO4)CCN1C (stereo not drawn)	class 0
CC(=O)Nc1nc(-c2ccccc2)cs1	class 0
Oc1ccc2ccccc2c1N=Nc1ccccn1	class 0
CC1=C(/C=C/C(C)=C/C(=O)O)C(C)(C)CCC1	class 0
CC1(C)OC2C(COC(c3ccccc3)(c3ccccc3)c3ccccc3)OC(c3c[nH]c4c(N)ncnc34)C2O1 (stereo not drawn)	class 0
O=C(Nc1cccc(C(F)(F)F)c1)Oc1ccc(Cl)c2cccnc12	class 1
O=C(O)c1cccc2cccc(-c3c4ccc(=O)c(O)c-4oc4c(O)c(O)ccc34)c12	class 1
CC1(C)CCC2(C(=O)O)C(O)CC3(C)C(=CCC4C5(C)CCC(OC6OCC(O)C(O)C6OC6OCC(O)C(O)C6OC6OCC(O)C(OC7OC(CO)C(O)C(O)C7O)C6O)C(C)(C)C5CCC43C)C2C1 (stereo not drawn)	class 0
CCCOS(=O)(=O)c1ccccc1	class 0
C=c1c2ccccc2oc2nc3[nH]c(N)c(C#N)c(N)c3c(=N)c12	class 0
CCCCCCC1N=C(N)N=C(N)N1c1cccc(Cl)c1 (stereo not drawn)	class 0
CC(=O)C1Cc2ccccc2C1=O (stereo not drawn)	class 0
CCC1CCCCN1C(=S)N/N=C(\C)c1ccccn1 (stereo not drawn)	class 0
Cc1cc(C)c([I+]c2c(C)cc(C)cc2C)c(C)c1	class 0
CCOC(=O)/C(=C\c1ccc2ccccc2c1)P(=O)(OCC)OCC	class 0
COc1cc(N(CCC#N)CCC#N)ccc1/C(N=Nc1ccc(C(=O)O)cc1)=N/NC(=O)c1cc(Br)ccc1O	class 0
CSS(C)(=O)=O	class 0
COc1ccc2nc3cc(Cl)ccc3c(NCCCCCN3CCCCC3)c2c1	class 0
Clc1ccc(Cc2nc3ccccc3s2)cc1	class 0

* * *

Entries annotated with measured growth inhibition
# Test Method Notes: NCI Yeast Anticancer Drug Screen. Data for the mlh1 rad18 strain (AID 175)
# Test Conditions: S. cerevisiae mlh1 rad18 strain growth inhibition; at 50.0 µM; hits give high values
The panel holds about 79,000 compounds, 15% with a hit somewhere; the sample as a whole holds those more often.
Attribute Measured: growth inhibition (%)

Nc1c(N)c(Cl)c(Cl)c(Cl)c1Cl	87.3
O=C1/C(=C/c2ccccn2)CCc2ccccc21	84.2
CCC(=O)c1cc([N+](=O)[O-])c(Br)s1	99.5
CCOC(=O)C1=C(C(=O)c2ccccc2)C(c2cccc([N+](=O)[O-])c2)C(C(=O)c2ccccc2)=C(C(=O)OCC)N1	67.7
Cc1cc(Br)c2nsnc2c1[N+](=O)[O-]	77.9
O=C(O)c1cc2c(s1)C(=O)c1sccc1C2=O	92.8
CC1OC(OC2C(OC3CCC4(C)C(CCC5(C)C4CC=C4C6CC(C)(C)CCC6(C(=O)O)CCC45C)C3(C)CO)OCC(O)C2O)C(O)C(O)C1O (stereo unspecified)	88.2
CCN(CC)CC(O)CNc1ccc(NCC2CO2)c2c1C(=O)c1ccccc1C2=O (stereo unspecified)	59
CCSc1nc2ccccc2o1	-15.7
O=C(CCl)N1c2ccccc2Sc2c1ccc1ccccc21	83.4
CCC(C)(O)Cc1ccc(Cl)cc1 (stereo unspecified)	-6.8
